System: Erk1/2 phosphorylation
Assay: Erk1/2 Phosphorylation Assay (western blot), Panc-1
Assay type: cell-based, human
Settings: at 10 μM, * = activation
Measurement name: % inh of Erk1/2 phosphorylation in Panc-1

CO[C@H]1C[C@H](Nc2nc(-c3nccn3C)nn3cc(-c4ccn(C)n4)c(C4CC4)c23)C1 [Compound 275]; 0 (0% inhibition)
CO[C@H]1CC[C@@H](Nc2nc(-c3nccn3C)nn3cc(-c4ccn(C(C)C)n4)c(C)c23)C1 (racemic) [Compound 1]; 0 (0% inhibition)
CO[C@H]1C[C@H](Nc2nc(-c3nccn3C)nn3cc(-c4cccnc4)c(C)c23)C1 [Compound 151]; D* (85-100% activation)
Cc1c(-c2ccn(C3CC3)n2)cn2nc(-c3nccn3C)nc(Nc3cc(OC(F)(F)F)ccn3)c12 [Compound 138]; D* (85-100% activation)

###

Tested on: Erk1/2 phosphorylation
Assay: Erk1/2 Phosphorylation Assay (western blot), Panc-1
Format: cell-based, human
Settings: at 10 μM, * = activation
Measurement name: % inh of Erk1/2 phosphorylation in Panc-1

Use the examples below as a reference point.
Cc1c(-c2ccn(C(C)C)n2)cn2nc(-c3nccn3C)nc(Nc3ccncc3)c12 [Compound 52]; 0 (0% inhibition)
Cc1cc(Nc2nc(-c3nccn3C)nn3cc(-c4ccn(C)n4)c(C)c23)n[nH]1 [Compound 255]; A (1-25% inhibition)
COCC1CCN(c2nc(-c3ccccn3)nn3cc(-c4ccn(C(C)C)n4)c(-c4ccccc4)c23)C1 (racemic) [Compound 25]; 0 (0% inhibition)
CO[C@H]1CC[C@@H](Nc2nc(-c3ccccn3)nn3cc(-c4ccn(C(C)C)n4)c(-c4ccccc4)c23)C1 (racemic) [Compound 24]; 0 (0% inhibition)

Count: 3. Required value per item: % inh of Erk1/2 phosphorylation in Panc-1.
1. Cc1c(-c2ccn(C(C)C)n2)cn2nc(-c3nccn3C)nc(Nc3ncco3)c12 [Compound 60]
2. CO[C@H]1CC[C@H](Nc2nc(-c3nccn3C)nn3cc(-c4cccnc4)c(-c4ccccc4)c23)C1 (racemic) [Compound 194]
3. CO[C@H]1C[C@H](Nc2nc(-c3nccn3C)nn3cc(-c4cccnc4)c(-c4ccccc4)c23)C1 [Compound 192]

[A]
1: A (1-25% inhibition); 2: D* (85-100% activation); 3: D* (85-100% activation)
